- System: MCF7
- protocol description: NCI tumour cell line growth inhibition, 48 h
Active and inactive are the calls of the source. Cut-off read from the data, not from the text of the source: active = GI50 up to about 1.1 µM and inactive = higher.
As shown below, each of these molecules has a reported GI50 value.
recorded metric: GI50

In [3]: df
Out[3]:
                                   molecule          measurement
0  O=C1CCc2ccc(O)c(c2)Oc2ccc(cc2)C(Sc2ccccc2)CCO1 (stereo not given)   12.1 µM (inactive)
1  N#Cc1c(-c2ccc(Cl)cc2Cl)nc2[nH]nc(S)n2c1=O  > 100 µM (inactive)
2  CC(NNC(=O)c1cc[n+]([BH2-]C#N)cc1)c1cccc(C(F)(F)F)c1 (stereo not given)   56.2 µM (inactive)
3  CC(NNC(=O)c1ccc[n+]([BH2-]C#N)c1)c1ccccc1 (stereo not given)  > 100 µM (inactive)
4  Brc1ccc(-c2nc(-c3ccc(Br)cc3)n(-c3ccccc3)n2)cc1  > 100 µM (inactive)
